Origin of values: patent US20260152573A1

# EXPERIMENTAL TARGET: T1, human serum albumin (human, UniProt P02768 25-609)
# T1 construct: Immobilised on SPR chips; also added in solution in the FcRn occupancy assays; also called HSA; humanSA
# EXPERIMENT SUMMARY: SPR Biacore 3000, HSA on chip, pH 5.5
PROPERTY: koff (s⁻¹)
Answer in s⁻¹, number only, no unit symbol.

Lookup: Answer with reported koff of 2H11-v12 fused at the C-terminus of Fc-ABDEG (two-armed) (Fc fusion, not shown: Fc-ABDEG domain) GGGGSGGGGSGGGGSGGGGSELQVVESGGGLVQAGGSLRLSCAASGRTFRSNTMGWFRQAPGKEREFVAAITWSGGTTYYADSVKGRFAISGDNAKNTVYLQMNSLKPEDTAVYYCAAEGPKWEPWNGIAHPADFGSWGQGTQVTVSS
Found: 9.72e-05

Lookup: Answer with reported koff of 2H11-v16 fused at the C-terminus of Fc-ABDEG (two-armed) (Fc fusion, not shown: Fc-ABDEG domain) GGGGSGGGGSGGGGSGGGGSELQVVESGGGLVQAGGSLRLSCAASGRTFRSNTMGWFRQAPGKEREFVAAITWSGGTTYYADSVKGRFAISGDNAKNTVYLQMNSLKPEDTAVYYCAAEGPKWEPWNGIYHPADAGSWGQGTQVTVSS
Found: 0.00301
